- target_desc: Kappa-type opioid receptor (Homo sapiens)
- Sequence (P41145 whole entry): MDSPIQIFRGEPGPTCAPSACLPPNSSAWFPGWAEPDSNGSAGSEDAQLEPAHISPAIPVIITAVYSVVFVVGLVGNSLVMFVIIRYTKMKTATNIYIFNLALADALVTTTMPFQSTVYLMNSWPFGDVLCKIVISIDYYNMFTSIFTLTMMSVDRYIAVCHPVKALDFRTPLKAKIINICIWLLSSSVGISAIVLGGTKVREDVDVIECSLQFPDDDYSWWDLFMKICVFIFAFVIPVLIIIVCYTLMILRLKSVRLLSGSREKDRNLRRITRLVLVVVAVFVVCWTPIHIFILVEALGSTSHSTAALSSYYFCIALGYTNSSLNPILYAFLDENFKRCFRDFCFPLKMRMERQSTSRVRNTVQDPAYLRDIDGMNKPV
- method_summary: Agonist activity at human recombinant kappa opioid receptor expressed in CHO cells after 2 hrs by [35S]GTPgammaS binding assay
attribute_measured: EC50

[[record]]
molecule = "CN1CC[C@]23Cc4nc5ccccc5cc4C[C@@]2(O)[C@H]1Cc1ccc(O)cc13"
target_desc = "Kappa-type opioid receptor (Homo sapiens)"
result = "492 nM"


Looking for the measured EC50 of Oc1ccc2c(c1)[C@]13CCN(C[C@@H]4CCCO4)[C@H](C2)[C@]1(O)Cc1cc2ccccc2nc1C3 , can you help?
26.8 nM

Looking for the measured EC50 of CCN1CC[C@]23Cc4nc5ccccc5cc4C[C@@]2(O)[C@H]1Cc1ccc(O)cc13 , can you help?
> 1000 nM

Origin of values: ChEMBL document CHEMBL3091434
